- experiment_description: in vitro
- recorded_conditions: human, HEK/T-REx cells
quantity_name: CC50 at 1 h

Identify measured CC50 at 1 h associated with O=c1c2ccccc2[se]n1-c1ccccc1 [Ebselen, ebselen]
1.8 µM

Continuing:
Please give measured CC50 at 1 h of the following entry: Cc1c2c(=O)n(-c3ccccc3Cl)[nH]c2cc(=O)n1Cc1ccccn1 [GKT136901]
> 50 µM

Return CC50 at 1 h (reported value) for this molecule: COc1cc(C(C)=O)cc(-c2cc(C(C)=O)cc(OC)c2O)c1O [Diapocynin, diapocynin]
> 50 µM

----------
- tested_system: human NOX1 (Homo sapiens)
- Construct: expressed in transfected cells; host or cells: CHO
- Sequence (Q9Y5S8 whole entry, one chain of several): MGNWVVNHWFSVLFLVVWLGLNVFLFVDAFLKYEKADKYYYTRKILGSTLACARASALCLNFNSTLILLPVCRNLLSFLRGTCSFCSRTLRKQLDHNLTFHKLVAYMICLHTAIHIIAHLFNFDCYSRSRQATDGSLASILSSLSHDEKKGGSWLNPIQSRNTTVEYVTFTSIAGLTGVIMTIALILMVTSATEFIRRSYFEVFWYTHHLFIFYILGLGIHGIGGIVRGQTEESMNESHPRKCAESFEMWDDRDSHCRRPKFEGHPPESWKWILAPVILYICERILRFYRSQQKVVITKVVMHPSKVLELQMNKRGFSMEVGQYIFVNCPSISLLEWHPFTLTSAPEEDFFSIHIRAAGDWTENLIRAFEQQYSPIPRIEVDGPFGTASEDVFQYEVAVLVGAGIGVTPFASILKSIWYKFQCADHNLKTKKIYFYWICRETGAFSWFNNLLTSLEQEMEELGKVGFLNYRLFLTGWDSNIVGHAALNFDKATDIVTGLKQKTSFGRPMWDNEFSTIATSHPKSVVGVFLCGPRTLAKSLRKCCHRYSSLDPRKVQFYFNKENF
- experiment_description: Amplex Red/HRP H2O2 detection in NOX1-expressing CHO cells
- Type: cell-based
- recorded_conditions: PMA 0.1 μM, read-out: IC50 NOX1 (CHO) AR
pIC50 overview
Note on units: pIC50 is unitless, being -log10 of a concentration expressed in mol/L.

Assign pIC50 to the following record: Cc1c2c(=O)n(-c3ccccc3Cl)[nH]c2cc(=O)n1Cc1ccccn1 [GKT136901]
5.04

Next:
# return recorded pIC50 for entry O=c1c2ccccc2[se]n1-c1ccccc1 [Ebselen, ebselen]
5.54

Quick one: give measured pIC50 for COc1cc(C(C)=O)cc(-c2cc(C(C)=O)cc(OC)c2O)c1O [Diapocynin, diapocynin]
4.49

----------
- tested_system: DUOX1 (Homo sapiens, UniProt Q9NRD9)
- Construct: expressed in transfected cells; host or cells: HEK293, selected with G418 and zeocin
- Sequence (Q9NRD9 22-1551): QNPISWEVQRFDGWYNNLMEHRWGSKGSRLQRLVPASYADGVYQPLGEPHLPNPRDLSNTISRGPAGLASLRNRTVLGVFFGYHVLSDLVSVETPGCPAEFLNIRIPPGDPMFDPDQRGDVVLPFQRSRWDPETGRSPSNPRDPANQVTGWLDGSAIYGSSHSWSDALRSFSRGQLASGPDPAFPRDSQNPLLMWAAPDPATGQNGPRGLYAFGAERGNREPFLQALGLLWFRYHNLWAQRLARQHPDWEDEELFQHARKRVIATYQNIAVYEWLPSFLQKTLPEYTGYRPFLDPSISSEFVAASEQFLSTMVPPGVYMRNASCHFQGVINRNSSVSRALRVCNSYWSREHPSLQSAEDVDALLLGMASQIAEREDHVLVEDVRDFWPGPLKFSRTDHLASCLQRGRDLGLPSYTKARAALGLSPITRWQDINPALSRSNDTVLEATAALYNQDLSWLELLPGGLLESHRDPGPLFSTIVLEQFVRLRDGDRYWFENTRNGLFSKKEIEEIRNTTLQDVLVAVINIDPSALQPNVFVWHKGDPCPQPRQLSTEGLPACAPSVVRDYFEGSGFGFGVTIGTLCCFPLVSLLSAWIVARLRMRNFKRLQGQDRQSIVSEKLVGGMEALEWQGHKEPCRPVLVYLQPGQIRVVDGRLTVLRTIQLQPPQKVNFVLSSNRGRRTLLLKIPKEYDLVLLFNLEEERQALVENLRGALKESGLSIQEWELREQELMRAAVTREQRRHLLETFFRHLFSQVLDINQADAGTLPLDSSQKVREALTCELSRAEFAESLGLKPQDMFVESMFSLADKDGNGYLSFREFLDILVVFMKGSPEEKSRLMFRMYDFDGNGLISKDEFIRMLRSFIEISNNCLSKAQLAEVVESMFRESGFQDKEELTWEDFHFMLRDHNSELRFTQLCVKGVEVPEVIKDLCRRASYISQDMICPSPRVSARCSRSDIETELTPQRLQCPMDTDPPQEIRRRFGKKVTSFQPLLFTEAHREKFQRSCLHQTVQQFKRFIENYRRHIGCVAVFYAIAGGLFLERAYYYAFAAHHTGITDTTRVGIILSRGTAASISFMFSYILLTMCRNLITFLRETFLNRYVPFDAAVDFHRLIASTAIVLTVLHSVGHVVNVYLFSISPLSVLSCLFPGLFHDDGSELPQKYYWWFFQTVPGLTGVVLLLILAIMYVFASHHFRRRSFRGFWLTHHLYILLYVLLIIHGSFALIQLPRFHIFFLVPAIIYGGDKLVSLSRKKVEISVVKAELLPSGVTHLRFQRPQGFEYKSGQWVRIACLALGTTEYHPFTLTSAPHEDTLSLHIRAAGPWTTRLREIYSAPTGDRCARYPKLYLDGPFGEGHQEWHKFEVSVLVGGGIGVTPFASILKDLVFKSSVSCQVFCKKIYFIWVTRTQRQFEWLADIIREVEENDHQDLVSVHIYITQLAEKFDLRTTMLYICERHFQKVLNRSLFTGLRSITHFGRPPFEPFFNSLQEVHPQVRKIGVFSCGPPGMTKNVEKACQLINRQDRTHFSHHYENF
- Sequence (Q1HG43 whole entry partner): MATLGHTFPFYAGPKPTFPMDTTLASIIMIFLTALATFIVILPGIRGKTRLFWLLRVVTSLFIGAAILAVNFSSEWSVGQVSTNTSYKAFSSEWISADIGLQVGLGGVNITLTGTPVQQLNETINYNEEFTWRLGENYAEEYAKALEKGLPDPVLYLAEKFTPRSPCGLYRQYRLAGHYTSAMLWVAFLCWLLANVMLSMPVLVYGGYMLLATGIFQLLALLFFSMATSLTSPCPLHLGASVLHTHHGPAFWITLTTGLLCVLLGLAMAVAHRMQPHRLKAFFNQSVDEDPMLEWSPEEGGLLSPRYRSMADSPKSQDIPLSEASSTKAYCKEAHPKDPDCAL
- experiment_description: Amplex Red/HRP H2O2 detection in DUOX1-expressing HEK293 cells
- Assay type: cell-based
- recorded_conditions: Amplex red/HRP, PMA 0.1 μM and ionomycin 1 μM; read-out: IC50 DUOX1 (HEK) AR
In this section we review reported pIC50 values for a set of molecules.
// returns pIC50 (minus log10 of molar concentration), number only

In one line, give reported pIC50 of the entry Cc1c2c(=O)n(-c3ccccc3Cl)[nH]c2cc(=O)n1Cc1ccccn1 .
5.23

Return pIC50 (reported value) for this molecule: COc1cc(C(C)=O)cc(-c2cc(C(C)=O)cc(OC)c2O)c1O
4.87

We next turn to a different molecule, shown below.
State its pIC50: O=c1c2ccccc2[se]n1-c1ccccc1
5.38

----------
- tested_system: UniProt Q9HBY0
- experiment_description: WST-1 O2•- detection in tetracycline-induced NOX3 HEK293 T-REx cells
- Type: cell-based
- recorded_conditions: WST-1, tetracycline 1 μg/mL 24 h; read-out: IC50 NOX3 (T-REx) WST-1
- Description: Compounds were dispensed prior addition of cells.
pIC50: −log10 of the molar value.
Entries and their pIC50 values follow.

Could you please provide reported pIC50 for COc1cc(C(C)=O)ccc1O [Apocynin, apocynin] ? Thanks!
< 4.30

Assign pIC50 to the following record: c1ccc(Cn2nnc3c(Sc4nc5ccccc5o4)ncnc32)cc1 [VAS2870]
< 4.30

Provide pIC50 value for the following compound: O=c1c2ccccc2[se]n1-c1ccccc1 [Ebselen, ebselen]
4.46

Others:
Please supply the value of reported pIC50 for the item COc1cc(C(C)=O)cc(-c2cc(C(C)=O)cc(OC)c2O)c1O [Diapocynin, diapocynin]
< 4.30

For the compound Cc1c2c(=O)n(-c3ccccc3Cl)[nH]c2cc(=O)n1Cc1ccccn1 [GKT136901] , give its reported pIC50.
< 4.30

----------
- experiment_description: in vitro
- recorded_conditions: human
# CC50 at 1 h per record follows

// Input: c1ccc2c(c1)[I+]c1ccccc1-2 [DPI, diphenylene iodonium chloride] . Output its CC50 at 1 h only.
> 50 µM

Write down CC50 at 1 h measured for item COc1cc(C(C)=O)ccc1O
> 50 µM

----------
In this section we review reported pIC50 values for a set of molecules.
- tested_system: human NOX1 (Homo sapiens)
- Construct: expressed in transfected cells; host or cells: CHO
- experiment_description: WST-1 O2•- detection in NOX1-expressing CHO cells
- Format: cell-based
- recorded_conditions: WST-1, PMA 0.1 μM
pIC50: −log10 of the molar value.

Here's what some known entries look like.
Retrieve pIC50 measured for COc1cc(C(C)=O)cc(-c2cc(C(C)=O)cc(OC)c2O)c1O and print it.
< 4.30

Entry COc1cc(C(C)=O)ccc1O needs its pIC50 filled in; supply it.
< 4.30

Report pIC50, nothing else, for this molecule: O=c1c2ccccc2[se]n1-c1ccccc1
4.50

Here is the next item to consider.
Note pIC50 for the molecule shown: Cc1c2c(=O)n(-c3ccccc3Cl)[nH]c2cc(=O)n1Cc1ccccn1
< 4.30

----------
- tested_system: NOX3 (Homo sapiens)
- experiment_description: WST-1 O2•- detection in tetracycline-induced NOX3 HEK293 T-REx cells
- Type: cell-based
quantity_name: pIC50
When answering, recall that pIC50 equals minus log10 of the concentration in mol/L, and write that number alone.

Supply pIC50 value. Item: c1ccc2c(c1)[I+]c1ccccc1-2 [DPI, diphenylene iodonium chloride]
6.70

----------
- tested_system: NOX3 (Homo sapiens, UniProt Q9HBY0)
- Sequence (Q9HBY0 1-568): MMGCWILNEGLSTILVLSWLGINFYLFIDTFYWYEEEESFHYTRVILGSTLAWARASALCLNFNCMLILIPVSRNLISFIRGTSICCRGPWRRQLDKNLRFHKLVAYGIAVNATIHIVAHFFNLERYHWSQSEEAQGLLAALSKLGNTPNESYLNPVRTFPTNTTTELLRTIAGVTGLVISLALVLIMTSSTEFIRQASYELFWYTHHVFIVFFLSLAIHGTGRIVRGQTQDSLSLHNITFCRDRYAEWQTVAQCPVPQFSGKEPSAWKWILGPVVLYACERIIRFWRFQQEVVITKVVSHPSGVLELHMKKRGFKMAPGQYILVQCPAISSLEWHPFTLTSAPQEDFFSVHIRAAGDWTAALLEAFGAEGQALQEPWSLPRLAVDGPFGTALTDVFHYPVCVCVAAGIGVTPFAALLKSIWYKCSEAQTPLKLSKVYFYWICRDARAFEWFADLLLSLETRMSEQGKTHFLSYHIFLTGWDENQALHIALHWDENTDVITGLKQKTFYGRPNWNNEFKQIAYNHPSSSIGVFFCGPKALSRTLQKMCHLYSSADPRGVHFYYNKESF
- Sequence (P13498 1-195 partner): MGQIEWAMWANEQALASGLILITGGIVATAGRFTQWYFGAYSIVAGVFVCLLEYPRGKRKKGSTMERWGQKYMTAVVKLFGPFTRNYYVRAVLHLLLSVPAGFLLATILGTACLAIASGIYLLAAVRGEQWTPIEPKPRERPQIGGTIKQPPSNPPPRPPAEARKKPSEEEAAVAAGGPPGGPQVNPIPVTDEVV
- Sequence (Q8NFA2 1-376 partner): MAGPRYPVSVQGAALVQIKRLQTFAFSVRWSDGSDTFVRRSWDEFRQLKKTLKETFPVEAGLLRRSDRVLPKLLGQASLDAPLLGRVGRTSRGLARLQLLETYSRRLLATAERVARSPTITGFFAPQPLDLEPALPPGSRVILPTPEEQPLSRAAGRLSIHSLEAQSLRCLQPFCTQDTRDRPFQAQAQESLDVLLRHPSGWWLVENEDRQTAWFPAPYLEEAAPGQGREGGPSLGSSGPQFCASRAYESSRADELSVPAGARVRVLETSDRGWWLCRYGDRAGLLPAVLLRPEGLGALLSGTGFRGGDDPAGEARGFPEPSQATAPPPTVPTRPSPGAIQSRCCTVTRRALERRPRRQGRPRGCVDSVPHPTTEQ
- experiment_description: Amplex Red/HRP H2O2 detection in tetracycline-induced NOX3 HEK293 T-REx cells
- Assay type: cell-based
- recorded_conditions: Amplex red/HRP, tetracycline 1 μg/mL 24 h; read-out: IC50 NOX3 (T-REx) AR
Quick list: IC50 per entry.
Answer format: numeric, µM implied, no suffix.

In one line, give reported IC50 of the entry O=c1c2ccccc2[se]n1-c1ccccc1 .
2.9

Next, consider the following molecule.
Please indicate IC50 recorded for Cc1c2c(=O)n(-c3ccccc3Cl)[nH]c2cc(=O)n1Cc1ccccn1
5.7

----------
- tested_system: DUOX1 (Homo sapiens, UniProt Q9NRD9)
- Construct: expressed in transfected cells; host or cells: HEK293, selected with G418 and zeocin
- experiment_description: Amplex Red/HRP H2O2 detection in DUOX1-expressing HEK293 cells
- Format: cell-based
quantity_name: IC50 (nM)
Record the value in nM, omitting the unit from your answer.

Given c1ccc2c(c1)[I+]c1ccccc1-2 [DPI, diphenylene iodonium chloride] , respond with its IC50.
1400

----------
- tested_system: NOX2 (Homo sapiens)
- Sequence (P04839 2-570 limits assumed, one chain of several): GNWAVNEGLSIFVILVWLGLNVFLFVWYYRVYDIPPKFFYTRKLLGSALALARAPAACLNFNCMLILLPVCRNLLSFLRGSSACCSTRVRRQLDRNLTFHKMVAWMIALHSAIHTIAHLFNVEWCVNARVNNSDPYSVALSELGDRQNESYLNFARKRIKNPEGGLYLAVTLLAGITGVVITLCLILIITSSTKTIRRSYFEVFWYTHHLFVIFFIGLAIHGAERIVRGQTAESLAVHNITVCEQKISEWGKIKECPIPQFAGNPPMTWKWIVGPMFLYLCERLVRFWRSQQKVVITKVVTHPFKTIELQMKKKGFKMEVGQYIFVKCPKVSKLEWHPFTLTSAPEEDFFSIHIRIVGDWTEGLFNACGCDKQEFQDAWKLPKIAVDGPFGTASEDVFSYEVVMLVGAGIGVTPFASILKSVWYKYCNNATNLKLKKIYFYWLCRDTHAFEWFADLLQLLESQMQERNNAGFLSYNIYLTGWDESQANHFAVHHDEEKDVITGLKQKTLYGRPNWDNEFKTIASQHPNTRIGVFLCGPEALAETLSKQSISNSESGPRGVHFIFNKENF
- experiment_description: WST-1 O2•- detection in differentiated PLB-985 cells (NOX2)
quantity_name: IC50

Read off the recorded IC50 for COc1cc(C(C)=O)cc(-c2cc(C(C)=O)cc(OC)c2O)c1O
> 50 µM

Respond only with IC50 recorded for COc1cc(C(C)=O)ccc1O
> 50 µM

Now turn to the next compound.
Determine from records and report IC50 for Cc1c2c(=O)n(-c3ccccc3Cl)[nH]c2cc(=O)n1Cc1ccccn1
> 50 µM
